Molecular target: UniProt P31213
Sequence (P31213 1-254): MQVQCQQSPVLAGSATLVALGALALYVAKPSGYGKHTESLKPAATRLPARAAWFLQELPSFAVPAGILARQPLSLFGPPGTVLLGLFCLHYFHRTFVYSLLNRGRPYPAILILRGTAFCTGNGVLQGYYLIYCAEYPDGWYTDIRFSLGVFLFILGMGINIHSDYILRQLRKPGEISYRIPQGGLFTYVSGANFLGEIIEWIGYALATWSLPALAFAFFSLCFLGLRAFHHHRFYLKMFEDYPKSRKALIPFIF
Assay: Cell free assay of 5α-reductase, microsomes of rat 1A cells expressing type 2 isoenzyme (HRED2);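 further: labeled testosterone and its product dihydrotestosterone measured in microsomal reaction extracts via thin layer chromatography plus radioanalytic scanning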
Type: biochemical
Parameters: expressed in transfected cells; host or cells: rat 1A cells infected with pMV7 retrovirus; microsomes
Settings: 100 uM; cell free assay; Table 2
Let's look at some compounds and their measured HRED2 % Inhibition @ 100 uM.
Lab book: enter the figure in %, no units written.

>>> df
                                   compound  observed_value
0    COc1cc(CCNC(=O)C=Cc2ccc(O)c(O)c2)ccc1O              13
1    NCCc1cc(O)c(O)c(O)c1 [Hydroxydopamine]              41
2                    O=c1ccc2cc(O)c(O)cc2o1              13
3  O=C(NCCc1cc(O)c(O)c(O)c1)c1cc(O)c(O)c(O)c1               6
4  CC(Cc1ccc(O)c(O)c1)C(C)Cc1ccc(O)c(O)c1 (stereo not shown) [Nordihydrogaiaretic Acid, Nordihydroguaiaretic acid]              80

Turning to the following compound.
Entry COc1cc(C(=O)C=Cc2ccc(N(C)C)cc2)cc(OC)c1OC has what HRED2 % Inhibition @ 100 uM?
0
